Assign fold affinity over mother clone F to each entry below.
# targetUnderTest: T1, human VEGF (human, UniProt P15692-4 27-191)
# T1 construct: Bought recombinant protein; also called hVEGF; human VEGF-A
# T1 sequence (P15692 other isoform, or with tags, fused parts or gaps limits assumed): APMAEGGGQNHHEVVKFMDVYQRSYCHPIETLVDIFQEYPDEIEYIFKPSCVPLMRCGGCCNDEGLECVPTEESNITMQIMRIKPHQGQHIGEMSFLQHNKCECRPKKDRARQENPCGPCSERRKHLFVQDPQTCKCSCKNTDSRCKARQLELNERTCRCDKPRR
# experiment: ELISA and BIAcore

Record excerpt, results attached:
* HF2-20 (antibody, V domains shown) VH: EVQLVESGGGLVQPGGSLRLSCAASYMEYRSHGMQWVRQAPGKGLEYVAGISSDGSWSRVDAAVEGRFTISRDDSKNTAYLQMNSLRAEDTAVYYCARDFSTGYGADSIDAWGQGTLVTVSS VL: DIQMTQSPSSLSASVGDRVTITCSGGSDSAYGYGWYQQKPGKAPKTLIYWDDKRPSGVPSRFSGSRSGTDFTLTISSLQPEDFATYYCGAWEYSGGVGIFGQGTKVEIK | ≥ 10 times
* HF2-21 (antibody, V domains shown) VH: EVQLVESGGGLVQPGGSLRLSCAASFQYFRSHGMQWVRQAPGKGLEYVAGISSDGSWYRVQAAVEGRFTISRDDSKNTAYLQMNSLRAEDTAVYYCARDFSTGYGADSIDAWGQGTLVTVSS VL: DIQMTQSPSSLSASVGDRVTITCSGGSMEPLGYGWYQQKPGKAPKTLIYWDDKRPSGVPSRFSGSRSGTDFTLTISSLQPEDFATYYCGAWEYSGGVGIFGQGTKVEIK | ≥ 10 times
* HF2-17 (antibody, V domains shown) VH: EVQLVESGGGLVQPGGSLRLSCAASGFMIRSHGMQWVRQAPGKGLEYVAGISSDGSWRRHSAAVEGRFTISRDDSKNTAYLQMNSLRAEDTAVYYCARDFSTGYGADSIDAWGQGTLVTVSS VL: DIQMTQSPSSLSASVGDRVTITCSGGSIEPLGYGWYQQKPGKAPKTLIYWDDKRPSGVPSRFSGSRSGTDFTLTISSLQPEDFATYYCGAWEYSGGVGIFGQGTKVEIK | ≥ 10 times

// input: 2 binders below; output: fold affinity over mother clone F for each
1. HF2-13 (antibody, V domains shown) VH: EVQLVESGGGLVQPGGSLRLSCAASGFLVRSHGMQWVRQAPGKGLEYVAGISSDGSWQRVNAAVEGRFTISRDDSKNTAYLQMNSLRAEDTAVYYCARDFSTGYGADSIDAWGQGTLVTVSS VL: DIQMTQSPSSLSASVGDRVTITCSGGSDLLLGYGWYQQKPGKAPKTLIYWDDKRPSGVPSRFSGSRSGTDFTLTISSLQPEDFATYYCGAWEYSGGVGIFGQGTKVEIK
2. HF2-23 (antibody, V domains shown) VH: EVQLVESGGGLVQPGGSLRLSCAASGFRIRSHGMQWVRQAPGKGLEYVAGISSDGSWFSSAAAVEGRFTISRDDSKNTAYLQMNSLRAEDTAVYYCARDFSTGYGADSIDAWGQGTLVTVSS VL: DIQMTQSPSSLSASVGDRVTITCSGGSDLLLGYGWYQQKPGKAPKTLIYWDDKRPSGVPSRFSGSRSGTDFTLTISSLQPEDFATYYCGAWEYSGGVGIFGQGTKVEIK

Completion:
1. ≥ 10 times
2. ≥ 10 times
